Tested on: Calu-3
Test: cell viability relative to DMSO; higher = less toxic
Conditions: 72 h; 10000 nM
I'd be grateful if you could share measured cell viability for these entries.
One number for each entry, in %.

Please review the following examples before continuing.
compound="CN1CCCN(C(c2ccccc2)c2ccc(Cl)cc2)CC1 (stereo not given)" quantitative_readout=99.3
compound="CN1CCOC(c2ccccc2)c2ccccc2C1 (stereo not given)" quantitative_readout=101
compound=CC(C)(O)C(Cl)(Cl)Cl quantitative_readout=98.9
compound=CCCCCOc1c(OC)ccc2cc(C(=O)NCc3ccc4c(c3)OCO4)c(=O)[nH]c12 quantitative_readout=90.8
compound=c1cc(OCCN2CCCCC2)cc(-c2n[nH]c3ccc(-c4nnc[nH]4)cc23)c1 quantitative_readout=122
compound="Oc1cc2c(c(Cl)c1O)CCNCC2c1ccccc1 (stereo not given)" quantitative_readout=91.1
compound=O=C(N[C@H]1CN2CCC1CC2)c1ccc(Cl)cc1 quantitative_readout=95.6
compound=O=c1[nH]cnc2c1ncn2[C@H]1CC[C@@H](CO)O1 quantitative_readout=99.9
compound=CN1CCN(c2ccc3ccccc3n2)CC1 quantitative_readout=95.1
compound="CCC(c1ccccc1)c1c(O)c2ccccc2oc1=O (stereo not given)" quantitative_readout=94.8

Take each entry in turn and give its cell viability.
1. CC(C)(C)c1cc(NC(=O)Nc2ccc(-c3cn4c(n3)sc3cc(OCCN5CCOCC5)ccc34)cc2)no1
2. O=C1CN(/N=C/c2ccc([N+](=O)[O-])o2)C(=O)N1
3. CC(=O)[C@@]1(O)CC[C@H]2[C@@H]3C=C(Cl)C4=CC(=O)[C@@H]5C[C@@H]5[C@]4(C)[C@H]3CC[C@@]21C
4. COC(=O)C1=CO[C@@H](O)[C@@H]2C(CO)=CC[C@H]12
5. Nc1nc(O)c2nc(Br)n([C@@H]3O[C@@H]4COP(=O)(O)O[C@H]4[C@H]3O)c2n1
6. CS(=O)(=O)c1ccc([C@@H](O)[C@@H](CO)NC(=O)C(Cl)Cl)cc1
7. CCCCC(CC)CCC(CC(C)C)OS(=O)(=O)O (stereo not given) [sodium-tetradecyl-sulfate]
8. CCc1nc(C)ccc1O

*A*
1. 96.1
2. 102
3. 97.4
4. 87
5. 113
6. 97.8
7. 97.5
8. 105

Take each entry in turn and give its cell viability.
1. Cc1cccc(C)c1NC1=NCCCS1
2. CN1C(C(=O)Nc2ccccn2)=C(O)c2sc(Cl)cc2S1(=O)=O

*A*
[90.2, 104]

Values were extracted from the supplement of paper PMC13380429.
